target: Glucocorticoid receptor (Homo sapiens) (UniProt P04150); test: qHTS assay to identify small molecule agonists of the glucocorticoid receptor (GR) signaling pathway (AID 720691); conditions: GR-bla HeLa, beta-lactamase reporter ratio, 18 h
Sequence (P04150 whole entry, looked up): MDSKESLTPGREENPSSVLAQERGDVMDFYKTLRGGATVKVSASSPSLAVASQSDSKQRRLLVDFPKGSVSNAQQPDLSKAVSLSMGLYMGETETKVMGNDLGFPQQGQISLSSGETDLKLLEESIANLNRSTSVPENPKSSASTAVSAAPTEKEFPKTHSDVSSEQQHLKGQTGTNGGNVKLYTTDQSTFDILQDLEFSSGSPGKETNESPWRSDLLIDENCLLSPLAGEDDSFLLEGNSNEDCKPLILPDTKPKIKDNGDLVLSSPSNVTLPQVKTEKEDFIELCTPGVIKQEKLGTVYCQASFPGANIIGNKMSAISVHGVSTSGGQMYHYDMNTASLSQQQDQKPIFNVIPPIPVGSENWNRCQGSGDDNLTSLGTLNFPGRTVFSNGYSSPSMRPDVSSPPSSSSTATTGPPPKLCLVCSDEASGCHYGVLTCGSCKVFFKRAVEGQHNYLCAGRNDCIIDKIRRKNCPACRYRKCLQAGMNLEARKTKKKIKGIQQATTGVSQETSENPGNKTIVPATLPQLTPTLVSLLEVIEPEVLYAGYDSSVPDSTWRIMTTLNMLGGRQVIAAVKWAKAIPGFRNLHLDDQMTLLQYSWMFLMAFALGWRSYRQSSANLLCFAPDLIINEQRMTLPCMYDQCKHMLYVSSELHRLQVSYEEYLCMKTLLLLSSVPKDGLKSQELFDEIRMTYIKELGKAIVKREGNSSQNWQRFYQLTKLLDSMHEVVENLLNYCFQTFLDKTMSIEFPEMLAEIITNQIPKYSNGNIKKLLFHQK
Records with an inconclusive call do not appear. Activity calls are given as the source filed them. Calls come from the whole dose curve; as a rule, active = well fitted activation curve with a large enough effect in the signal ratio in the repeat runs (not every such curve was filed as active); inconclusive = weak or mixed curves, or effect the other way; inactive = no such curve, though single readings can be large or run the other way; the % refers to the signal ratio.
Please reply with one of these outcomes: Yes for active, No for inactive

Sample answers from the record:
{"compound": "Cn1c(=O)c2c(ncn2CCOC(=O)C(C)(C)Oc2ccc(Cl)cc2)n(C)c1=O", "tgt": "Glucocorticoid receptor (Homo sapiens) (UniProt P04150)", "cat": "No"}
{"compound": "CCOC(=O)[C@H](CS)NCCN[C@@H](CS)C(=O)OCC", "tgt": "Glucocorticoid receptor (Homo sapiens) (UniProt P04150)", "cat": "No"}
{"compound": "COc1ccc(CCNC[C@H](O)c2ccc(O)cc2)cc1OC", "tgt": "Glucocorticoid receptor (Homo sapiens) (UniProt P04150)", "cat": "No"}
{"compound": "C[C@@H]1CCC2[C@@H](C)[C@@H](O)O[C@@H]3O[C@@]4(C)CC[C@@H]1[C@@]23OO4 (stereo not given in full)", "tgt": "Glucocorticoid receptor (Homo sapiens) (UniProt P04150)", "cat": "No"}
{"compound": "CCOC(=O)[C@H](CCc1ccccc1)N[C@H]1CCCN2CCC[C@@H](C(=O)O)N2C1=O", "tgt": "Glucocorticoid receptor (Homo sapiens) (UniProt P04150)", "cat": "No"}

Which outcome was assigned to O=C(O)c1ccc(OCCn2ccnc2)cc1 in this test?
No

Which outcome was assigned to Nc1ccn(C[C@@H](CO)OCP(=O)(O)O)c(=O)n1 in this test?
No
